B1: Far upstream element-binding protein 2, residues 142 to 214; numbered along this chain, Q92945 (parent)
chain: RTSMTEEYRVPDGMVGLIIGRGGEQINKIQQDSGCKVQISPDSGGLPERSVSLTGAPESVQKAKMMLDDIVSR

- Variants of: B1
- measurement_protocol: abundance fitness (aPCA) (normalised: wild type 0, dead -1); higher = more abundant; growth selection in yeast, the domain comes from the species named
- recorded_conditions: Homo sapiens
recorded_endpoint: abundance fitness
Answers are plain numbers.

Use these answered entries as a reference point.
I39R; -0.645
K64T; -0.445
C35V; -0.209
Q25H; -0.256
S52D; -0.312
G44P; -0.137
S59Q; -0.037
S59Y; -0.727

Answer for every listed entry: what is its abundance fitness? The entries follow.
1. Q30S
2. L53I
3. I70P
4. S59I
5. L67G
6. I29Y
7. D68L
8. S40M

1. -0.078
2. -0.09
3. -0.555
4. -0.848
5. -0.602
6. -0.971
7. -0.564
8. -0.024

Answer for every listed entry: what is its abundance fitness? The entries follow.
1. Q61K
2. V60Q
3. V37C
4. I39P
5. Q25I

1. 0.045
2. -0.586
3. -0.144
4. -0.477
5. -0.015

Answer for every listed entry: what is its abundance fitness? The entries follow.
1. L67A
2. V71C
3. G34N

-0.5
-0.052
-0.219

Answer for every listed entry: what is its abundance fitness? The entries follow.
1. K28H
2. V71K
3. Q38G
4. V51S
5. L53K
6. V51E

[-0.162, -0.174, -0.172, -0.837, -1, -0.84]

Answer for every listed entry: what is its abundance fitness? The entries follow.
1. G34L
2. G44F

[-0.396, -0.194]

Answer for every listed entry: what is its abundance fitness? The entries follow.
1. D32P
2. P57K
3. P57M
4. S43G
5. R73I

1. -1.1
2. -0.185
3. -0.225
4. -0.034
5. 0.027

Answer for every listed entry: what is its abundance fitness? The entries follow.
1. S52T
2. M66K
3. E48V
4. P47G
5. S52L
6. I26F

0.068
-0.462
-0.103
0.002
0.059
-0.492

Answer for every listed entry: what is its abundance fitness? The entries follow.
1. Q61G
2. L46Q
3. D69K
4. D32S
5. R21N

[-0.053, -0.052, -0.043, -0.047, 0.074]
